B1: Twister Ribozyme (parent)
chain: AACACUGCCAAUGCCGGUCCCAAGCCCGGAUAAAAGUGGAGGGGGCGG

Variants of: B1
Assay: self-cleavage, relative activity (ratio to wild type); higher = more cleavage; co-transcriptional
Below, each of the variants is paired with its reported self-cleavage value.

MUTANT CODE	self-cleavage
G38A G44C	0.932
C26A G45C	0.123
C3G C20U	0.295
A34U G39U	0.139
C9U A33U	0.751
C46U	0.958
U12G G36A	0.64
A10G G17A	1.02
C5A G24U	0.0619
U18G C26A	0.0682
A4C A32C	0.101
G17C C46A	0.107
C8A G16U	0.144
G16C A22C	0.198
C5G C15G	0.0337
C9G U37G	0.327
C27G G39C	0.105
C20U G39C	0.0926
C3A A23U	0.133
G16C C19U	0.461
A2C G45U	0.0774
G28U A40G	0.155
C25A U37G	0.0674
G41C G42U	0.167
G39C G42A	0.148
C15A A33G	0.578
U12A A30C	0.893
A40C G41C	0.15
C19A G24C	0.0773
A1C C19G	0.187
A22U A35G	0.583
G7A C46A	0.354
A10C U37C	0.767
A22U G29U	0.66
A34C G38C	0.157
A1C G45A	0.184
G7C U37C	0.0652
A40C G45U	0.171
A32U C46G	0.973
A11U U12G	1.05
A10G G16C	0.567
A2U A4C	0.0829
C21A G38A	0.109
C25A G28A	0.166
U12A	1.11
G24C G45A	0.0924

Value source: the RNAGym collection of RNA variant scans (doi:10.7554/elife.80360)
